Reference source: paper PMC539285

# Test system: chloroquine-resistant strain FcB1 of P. falciparum
# method: Anti-Plasmodium activity, [3H]hypoxanthine microdilution on asynchronous cultures
# Type: cell-based, Plasmodium falciparum
# setup.conditions: Plasmodium falciparum; Figure 3, series B (methylene or thiourea linkage); strain FcB1; read-out: CI50 (the source's name)
pIC50: −log10 of the molar value.
metric: pIC50

{"columns": ["smiles.repr", "study.system", "pIC50"],
 "data": [
  ["CCCCCCCCCCCCCCN[C@@H](CO)[C@@H](O)c1ccc([N+](=O)[O-])cc1", "chloroquine-resistant strain FcB1 of P. falciparum", 7.42],
  ["CCCCCCCCNc1ccc([C@@H](O)[C@@H](CO)NCCCCCCCC)cc1", "chloroquine-resistant strain FcB1 of P. falciparum", 7.47],
  ["CCCCCCCCCCCCCCN[C@H](CO)[C@H](O)c1ccc(NC(C)=O)cc1", "chloroquine-resistant strain FcB1 of P. falciparum", 5.24],
  ["CCCCCCCCCCCCN[C@H](CO)[C@H](O)c1ccc([N+](=O)[O-])cc1", "chloroquine-resistant strain FcB1 of P. falciparum", 7.77],
  ["CCCCCCCCCCCCCCN[C@H](CO)[C@H](O)c1ccc(N)cc1", "chloroquine-resistant strain FcB1 of P. falciparum", 5.77],
  ["CCCCN[C@H](CO)[C@H](O)c1ccc([N+](=O)[O-])cc1", "chloroquine-resistant strain FcB1 of P. falciparum", 6.11],
  ["CCCCNc1ccc([C@@H](O)[C@@H](CO)NCCCC)cc1", "chloroquine-resistant strain FcB1 of P. falciparum", 5.89],
  ["CCCCCCCCCCCCCCCCN[C@H](CO)[C@H](O)c1ccc([N+](=O)[O-])cc1", "chloroquine-resistant strain FcB1 of P. falciparum", 7.37],
  ["CCCCCCCCCCCCCCN[C@H](CO)[C@H](O)c1ccc([N+](=O)[O-])cc1", "chloroquine-resistant strain FcB1 of P. falciparum", 7.51],
  ["CCCCCCCCCCCCCCN[C@H](CO)[C@H](O)c1ccc(NCC)cc1", "chloroquine-resistant strain FcB1 of P. falciparum", 5.83]
]}

[1] CC(C)(C)NC(=S)N[C@H](CO)[C@H](O)c1ccc([N+](=O)[O-])cc1
[2] CCCCNC(=S)N[C@H](CO)[C@H](O)c1ccc([N+](=O)[O-])cc1
Query: Would you mind telling me which has the lower recorded pIC50 between 1 and 2 ? Your answer should be the label attached to the chosen record.
Response: 2
(2: 5.95, 1: 6.24)

---

# method: Cytotoxicity test upon human embryonic cells (MTT)
# Type: cell-based
# setup.conditions: human, MRC-5 human diploid embryonic lung cells; MRC-5, five days, MTT; mean of three experiments
# Protocol: A human diploid embryonic lung cell line (MRC-5, Bio-Whittaker 72211D) was used to assess the cytotoxic effects towards eukaryotic host cells. MRC-5 cells were seeded at 5,000 cells per well in 100 μl. […] The cytotoxicity was determined using the colorimetric MTT assay according to the manufacturer's recommendations (Cell proliferation kit I, Roche Applied Science, France) and scored as a percentage of reduction in absorption at 540 nm of treated cultures versus untreated control cultures. […]
metric: IC90 at 5 days (µM)
// note: answer is a bare numeric in µM

Some entries whose results are on file:
{"columns": ["compound", "recorded.result"],
 "data": [
  ["CCCCCCCCCCCCCCN[C@H](CO)[C@H](O)c1ccc(N)cc1", 5.9],
  ["CCCCCCCCCCCCCCN[C@H](CO)[C@H](O)c1ccc([N+](=O)[O-])cc1", 7.5],
  ["CCCCCCCCCCCCCCCCN[C@H](CO)[C@H](O)c1ccc([N+](=O)[O-])cc1", 42.3]
]}

Query: Quick one: IC90 at 5 days for CCCCCCCCCCCCCCNC(CO)Cc1ccccc1 (stereo not shown) ?
Response: 9.8

Query: Quick one: IC90 at 5 days for CCCCCCCCCCCCCCN[C@@H](CO)[C@@H](O)c1ccc([N+](=O)[O-])cc1 ?
Response: 10.3

Query: Quick one: IC90 at 5 days for CCCCCCCCCCCCCCCC(=O)NC(CN1CCOCC1)C(O)c1ccccc1 (stereo not shown) [PPMP, reference compound] ?
Response: 12.4

Query: Quick one: IC90 at 5 days for CCCCCCCCCCCCCCN[C@H](CO)[C@H](O)c1ccccc1 ?
Response: 9.9
